Recorded Min cell viability, OV90 (CLDN6 low) for the following binders
subject-of-test: T1, human Claudin 6 (human, UniProt P56747 1-220)
T1 sequence (looked up): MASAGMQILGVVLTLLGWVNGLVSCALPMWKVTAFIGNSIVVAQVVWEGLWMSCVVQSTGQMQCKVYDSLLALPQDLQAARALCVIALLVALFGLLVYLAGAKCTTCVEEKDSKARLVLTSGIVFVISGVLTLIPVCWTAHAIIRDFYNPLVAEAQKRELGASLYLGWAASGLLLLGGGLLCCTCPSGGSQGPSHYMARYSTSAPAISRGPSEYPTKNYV
test-description: cell-based or functional assay
Please give a number only; it is taken to be in %.

Check out these entries, answers already filled in.
z5-LM-D03 (antibody, V domains shown, LM-D03 conjugated to the antibody (structure only as a drawing); residues and drug load not stated) VH: QVQLVQSGAEVKKPGASVKVSCKASGYAFTGYTMNWVRQAPGQGLEWIGLSNPYNAGTIYNQKFKGRVTMTVDKSTSTVYMELSSLRSEDTAVYYCARNYYYGSSYAYYYAMDYWGQGTTVTVSS VL: DIVVTQSPSSLSTSVGDRVTITCRSSTGAVTTSNYANWVQEKPGKAFKGLIGGTNNRAPGVPARFSGSLSGDDAALTISSAQPEDFATYFCALWYSNHWVFGGGTKVEIK | 30.4
z5-MMAE (antibody, V domains shown, MMAE conjugated to the antibody; residues and drug load not stated) VH: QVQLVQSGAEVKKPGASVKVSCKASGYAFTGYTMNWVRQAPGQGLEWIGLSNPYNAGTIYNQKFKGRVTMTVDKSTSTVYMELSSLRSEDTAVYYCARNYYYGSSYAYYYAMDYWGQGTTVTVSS VL: DIVVTQSPSSLSTSVGDRVTITCRSSTGAVTTSNYANWVQEKPGKAFKGLIGGTNNRAPGVPARFSGSLSGDDAALTISSAQPEDFATYFCALWYSNHWVFGGGTKVEIK | 8
z5-DXD (antibody, V domains shown, DXD conjugated to the antibody; residues and drug load not stated) VH: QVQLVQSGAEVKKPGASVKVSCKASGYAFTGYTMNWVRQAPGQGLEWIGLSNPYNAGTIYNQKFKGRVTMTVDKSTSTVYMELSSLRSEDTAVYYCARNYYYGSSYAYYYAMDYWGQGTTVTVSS VL: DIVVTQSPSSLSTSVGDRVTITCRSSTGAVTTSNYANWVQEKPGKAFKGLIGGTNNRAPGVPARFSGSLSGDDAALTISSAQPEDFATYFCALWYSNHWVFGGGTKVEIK | 90.5

Let us move to another entry and its Min cell viability, OV90 (CLDN6 low).
Measured Min cell viability, OV90 (CLDN6 low) of z5-LM-D01 (antibody, V domains shown, LM-D01 conjugated to the antibody (structure only as a drawing); residues and drug load not stated) VH: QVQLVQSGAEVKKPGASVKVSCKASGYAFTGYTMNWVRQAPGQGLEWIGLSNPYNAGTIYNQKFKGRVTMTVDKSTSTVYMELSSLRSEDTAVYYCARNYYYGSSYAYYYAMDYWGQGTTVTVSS VL: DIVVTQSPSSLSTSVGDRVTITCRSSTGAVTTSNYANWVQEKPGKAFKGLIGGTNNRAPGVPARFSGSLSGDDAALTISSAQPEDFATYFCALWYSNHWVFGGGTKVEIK : 87.9
